Recorded values, source patent US20070269451A1.

Test system: anti-MUC1 antibody HMFG1
assay_explanation: ELISA binding of anti-MUC1 antibody HMFG1 to synthetic MUC1 VNTR peptides
Design: key: +++ indicates strong binding; ++ indicates fair binding; + indicates weak binding; − indicates no significant binding
test_settings: peptide coated 50 μg/ml to 25 ng/ml; semiquantitative scale; absorbance at 490 nm
assay_readout: ELISA signal, Antibody HMFG1

                                substance             target_entity  observed
0  Ac-(PAHGVVAAPDARPAPGAVAP)2-NH2 [Mut5A]  anti-MUC1 antibody HMFG1        ++
1  Ac-(PAHGVVAAPDIRPAPGAVAP)2-NH2 [Mut5I]  anti-MUC1 antibody HMFG1        ++
2  Ac-(PAHGVVAAPDPRPAPGAVAP)2-NH2 [Mut5P]  anti-MUC1 antibody HMFG1         +
3   Ac-(PAHGVVAAPDTRPAPGAVAP)2-NH2 [Mut4]  anti-MUC1 antibody HMFG1        ++
4  Ac-(PAHGVVAAPDVRPAPGAVAP)2-NH2 [Mut5V]  anti-MUC1 antibody HMFG1         −

For each of the items listed, what is its ELISA signal, Antibody HMFG1?
1. Ac-(PAHGVVAAPDWRPAPGAVAP)2-NH2 [Mut5W]
2. Ac-(PAHGVVAAPDNRPAPGAVAP)2-NH2 [Mut5N]

1. −
2. −

* * *

Tested on: anti-MUC1 antibody HMFG2
assay_explanation: ELISA binding of anti-MUC1 antibody HMFG2 to synthetic MUC1 VNTR peptides
Design: key: +++ indicates strong binding; ++ indicates fair binding; + indicates weak binding; − indicates no significant binding
test_settings: peptide coated 50 μg/ml to 25 ng/ml; semiquantitative scale; absorbance at 490 nm
assay_readout: ELISA signal, Antibody HMFG2

>>> df
                                substance  observed
0  Ac-(PAHGVVAAPDNRPAPGAVAP)2-NH2 [Mut5N]         −
1  Ac-(PAHGVVAAPDWRPAPGAVAP)2-NH2 [Mut5W]         −
2  Ac-(PAHGVVAAPDARPAPGAVAP)2-NH2 [Mut5A]         −
3  Ac-(PAHGVVAAPDVRPAPGAVAP)2-NH2 [Mut5V]       +++

For each of the items listed, what is its ELISA signal, Antibody HMFG2?
1. Ac-(PAHGVVAAPDPRPAPGAVAP)2-NH2 [Mut5P]
2. Ac-(PAHGVVAAPDTRPAPGAVAP)2-NH2 [Mut4]
3. Ac-(PAHGVVAAPDIRPAPGAVAP)2-NH2 [Mut5I]

1: −; 2: +++; 3: +++

* * *

System: anti-MUC1 antibody ATR1
assay_explanation: ELISA binding of anti-MUC1 antibody ATR1 to synthetic MUC1 VNTR peptides
Design: key: +++ indicates strong binding; ++ indicates fair binding; + indicates weak binding; − indicates no significant binding
test_settings: peptide coated 50 μg/ml to 25 ng/ml; semiquantitative scale; absorbance at 490 nm
assay_readout: ELISA signal, Antibody ATR1

>>> print(df.to_string())
                                substance            target_entity                assay_readout  observed
0  Ac-(PAHGVVAAPDIRPAPGAVAP)2-NH2 [Mut5I]  anti-MUC1 antibody ATR1  ELISA signal, Antibody ATR1        ++
1  Ac-(PAHGVVAAPDPRPAPGAVAP)2-NH2 [Mut5P]  anti-MUC1 antibody ATR1  ELISA signal, Antibody ATR1         +
2   Ac-(PAHGVVAAPDTRPAPGAVAP)2-NH2 [Mut4]  anti-MUC1 antibody ATR1  ELISA signal, Antibody ATR1       +++
3  Ac-(PAHGVVAAPDARPAPGAVAP)2-NH2 [Mut5A]  anti-MUC1 antibody ATR1  ELISA signal, Antibody ATR1       +++

For each of the items listed, what is its ELISA signal, Antibody ATR1?
1. Ac-(PAHGVVAAPDVRPAPGAVAP)2-NH2 [Mut5V]
2. Ac-(PAHGVVAAPDNRPAPGAVAP)2-NH2 [Mut5N]

1. +++
2. +++

Let me know recorded ELISA signal, Antibody ATR1 for Ac-(PAHGVVAAPDWRPAPGAVAP)2-NH2 [Mut5W] , thanks.
++
